Tested on: UACC-62 melanoma
protocol: NCI-60 one-dose screen, 48 h (100 = growth as untreated, 0 = no growth, -100 = all killed)
applied_conditions: 10 µM
The panel holds about 83,000 compounds, 20% with a hit somewhere; the sample as a whole holds those more often.
Reported growth by item:

| compound | u | growth |
| --- | --- | --- |
| COc1cccc(COc2ccc(/C=C3\Oc4cc(O)ccc4C3=O)cc2)c1 | % | 82.7 |
| CC1=C2C(=C[C@@](C)(CO)[C@@H]2O)/C(=N\N)[C@](C)(O)C12CC2 | % | -81.7 |
| O=C(NO)c1ccc(CNC(=O)[C@H]2Cc3c([nH]c4ccccc34)[C@H](c3ccc(Cl)cc3)N2)cc1 | % | -49.8 |
| COc1ccc(C(=O)Nc2ccc(-c3ccc4c(c3)NC(=O)/C4=C\c3ccc[nH]3)cc2)cc1 | % | 78.1 |
| CC(=C(c1ccc(OCCN2CCCCC2)cc1)c1ccc(OCCN2CCCCC2)cc1)c1ccccc1 | % | -79 |
| CONC[C@]1(C)C=C2C(=O)[C@](C)(O)C3(CC3)C(C)=C2[C@H]1O | % | -90 |
| CC(=O)C1=C(C)NC(SCC(=O)Nc2ccc(S(=O)(=O)Nc3cc(C)on3)cc2)=NC1c1ccccc1 (centres undefined) | % | 97.1 |
| O=c1oc2ccc(-c3ccc(F)cc3F)cc2c(=O)n1-c1ccc(F)cc1 | % | -50.2 |
| N#Cc1c(NC(=O)c2ccc(C(O)(C(F)(F)F)C(F)(F)F)cc2)sc2c1CCC(=O)C2 | % | -88.3 |

====

Reported growth by item:
System: SK-MEL-5 melanoma
protocol: NCI-60 one-dose screen, 48 h (100 = growth as untreated, 0 = no growth, -100 = all killed)
applied_conditions: 10 µM
Compounds without any hit were thinned out: in the full panel of roughly 83,000, 20% have a hit.
recorded_metric: growth (%)

| molecule | measured |
| --- | --- |
| CN(C)c1ccc(/C=C/C(=O)c2ccc(NC(=O)CN3C(=O)NC(C)(c4ccccc4)C3=O)cc2)cc1 (stereo unspecified) | 23.2 |
| Cc1cc(C)nc(NS(=O)(=O)c2ccc(N/C(N)=N/c3nccc(-c4ccccc4)n3)cc2)n1 | 46.3 |
| COc1ccc2[nH]c(O)c(N=NC(=O)COc3ccc(NC(=O)Nc4ccc(Cl)c(Cl)c4)cc3)c2c1 | -56.3 |
| O=C(NO)c1ccc(Cn2ccc3c(Nc4ccccc4)ncnc32)cc1 | -67.2 |
| Cc1ccc(C(=O)NCCCNc2nc(Nc3ccc(N4CCN(C)CC4)cc3)nc3ccsc23)cc1 | -15.2 |
| Cc1nc(Nc2nc(C)c3ccc(OCCN4CCOCC4)cc3n2)[nH]c(=O)c1C | -97.1 |
| N#Cc1c(NC(=O)c2ccc(C(O)(C(F)(F)F)C(F)(F)F)cc2)sc2c1CCC(=O)C2 | -99.1 |
| COc1ccc(CN2[C@@H](C(=O)NCc3ccc(C(=O)NO)cc3)Cc3c([nH]c4ccccc34)[C@@H]2C2CC2)cc1 | -19.9 |
| COc1ccc(C2N(c3ccc(Br)cc3)N=C(C(C)=O)N2[C@H]2[C@H](OC(C)=O)O[C@H](COC(C)=O)[C@@H](OC(C)=O)[C@@H]2OC(C)=O)cc1 (stereo partly specified) | 77.7 |
| CN1CCN(c2ccc(C(=O)/C=C/c3ccc(OC(F)F)cc3)cc2)CC1 | 52.9 |
| COc1ccc2cc([C@H](C)C(=O)NCc3ccccc3)ccc2c1 | 18.7 |
| O=c1cc(-c2ccccc2)oc2cc(OCCCCNCc3ccccc3)cc(O)c12 | -99.9 |
| Nc1cccnc1/C=N/NC(=S)NCCNC(=O)c1ccc(-n2nc(-c3ccccc3O)nc2-c2ccccc2O)cc1 | -42 |
| CC(=O)c1cc(C(=O)c2ccc3c(c2)NC(=O)CO3)n2ccc3ccccc3c12 | 57.6 |
| CC1=N/C(=C\c2ccc(N(C)C)cc2)C(=O)N1CCc1ccc(S(N)(=O)=O)cc1 | 97.8 |
| CCNCCCn1c2c(c3cc(OC)c(OC)cc3c1=O)C(=O)c1cc3c(nc1-2)OCO3 | 22.5 |
| Cc1cccc(-c2nc(Nc3ccccc3C(=O)O)c3ccccc3n2)c1 | 6.01 |
| CC(=O)C1=C(C)NC(SCC(=O)Nc2ccc(S(=O)(=O)Nc3cc(C)on3)cc2)=NC1c1ccccc1 (stereo unspecified) | 101 |
| CC1(c2ccccc2)NC(=O)N(CC(=O)Nc2ccc(C(=O)/C=C/c3ccc(Br)cc3)cc2)C1=O (stereo unspecified) | 27.5 |
| CCCCCCCCCCCCCCCCCCCC(=O)NCCc1c[nH]c2ccc(OC(=O)NOCCOCCOCCOCCOCCOCCOCCOCCOCCOCCOCCOCCOCCOCCOCCOCCOCCOCCOCCOCCOCCOCCOC)cc12 | -16.3 |
| COc1cc(/C=C/C(=O)c2ccc(F)cc2)ccc1Oc1nc(Nc2ccc(F)cc2)nc(N(C)C)n1 | 40 |
| Cc1cc(=O)oc2cc(OCCCCOc3ccc(/C=C/C(=O)Nc4ccccc4[N+](=O)[O-])cc3)ccc12 | 102 |
| Nc1nc(-c2ccccc2)cs1 | 59.1 |
| CN(C)c1ccc(/C=C/c2nc3ccccc3c(=O)n2CC(=O)Nc2ccc(Cl)cc2)cc1 | 55.7 |
| Cc1ccc(F)cc1N/C=c1\s/c(=C(\C#N)C(=O)Nc2ccccc2)n(-c2ccccc2)c1=O | 71.8 |
| COc1ccccc1NCc1ccc(CO)n1-c1ccc(C)cc1 | 100 |
| CN1CCCN(Cc2ccc(C(=O)Nc3cccc(Nc4ccc5c(O)cccc5n4)c3)cc2C(F)(F)F)CC1 | -100 |
| O=C(CNc1nc(-c2ccccc2)cs1)Nc1ccc(Cl)cc1[N+](=O)[O-] | -100 |
| COc1ccc(C(=O)/C=C/c2cc(C(F)(F)F)cc(C(F)(F)F)c2)cc1S(N)(=O)=O | -98.4 |
| O=C(Nc1ccncc1)c1ccc(-n2c(=O)[nH]c3ccccc3c2=O)cc1 | 90.8 |
| CC1=C2C(=C[C@@](C)(COCOCCCl)[C@@H]2O)C(=O)[C@](C)(O)C12CC2 | -62.3 |
| O=C1N/C(=N\c2nccs2)S/C1=C\c1cccs1 | -76.9 |
| COc1cc(/C=C/C(=O)c2ccc(NC(=O)CSc3nnc(-c4c[nH]c5ccccc45)n3-c3ccccc3)cc2)cc(OC)c1OC | 90.2 |
| Cc1ccc([N+](=O)[O-])c(C(=O)Nc2ccc(-c3ccc4c(c3)NC(=O)/C4=C\c3ccc[nH]3)cc2)c1 | 101 |
| COc1cnc2c(c1)C(=O)c1c-2n(CCCNCCO)c(=O)c2cc(OC)c(OC)cc12 | 12 |
| O=C1CCC(N2Cc3c(NCc4ccc(-c5ccccc5)cc4)cccc3C2=O)C(=O)N1 (stereo unspecified) | 67.3 |

====

Test system: MDA-MB-468 breast
protocol: NCI-60 one-dose screen, 48 h (100 = growth as untreated, 0 = no growth, -100 = all killed)
applied_conditions: 10 µM
About 83,000 compounds went through this panel and 20% of them were active in at least one assay; those are over-represented in the sample as a whole.

| substance_smiles | study_system | growth / % |
| --- | --- | --- |
| Cc1cc2nc3c4ccccc4n(CCO)c3nc2cc1C | MDA-MB-468 breast | 74.4 |
| C#Cc1ccc(S(=O)(=O)Nc2cccc(-c3csc(NC(C)=O)n3)c2)cc1 | MDA-MB-468 breast | 37.9 |
| COc1ccc(NC(=O)Nc2ccc(OCC(=O)N=Nc3c(O)[nH]c4ccc([N+](=O)[O-])cc34)cc2)cc1 | MDA-MB-468 breast | 30.2 |
| COc1ccc(Nc2nc(N)n(Cc3cccc(Br)c3)n2)cc1 | MDA-MB-468 breast | -12.3 |
| COc1ccc2[nH]c(O)c(N=NC(=O)COc3ccc(NC(=O)Nc4ccc(Cl)c(Cl)c4)cc3)c2c1 | MDA-MB-468 breast | -57.8 |
| O=C(CSc1nnc(-c2c[nH]c3ccccc23)n1-c1ccccc1)c1ccc(Cl)cc1 | MDA-MB-468 breast | 46.4 |
| COc1cc2c3c(n(CCCNC(C)C)c(=O)c2cc1OC)-c1nc2c(cc1C3=O)OCO2 | MDA-MB-468 breast | -9.99 |
| CC(=O)Nc1ccc(-c2cn(-c3cccc(C(=O)Nc4cc(C(F)(F)F)cc(C(F)(F)F)c4)c3)nn2)cn1 | MDA-MB-468 breast | -46.5 |
| O=c1[nH]c2ccccc2cc1CSc1ccc(Nc2nccc(-c3ccc(Cl)cc3)n2)cc1 | MDA-MB-468 breast | -67.5 |

====

Tested on: 786-0 renal
protocol: NCI-60 one-dose screen, 48 h (100 = growth as untreated, 0 = no growth, -100 = all killed)
applied_conditions: 10 µM
Compounds without any hit were thinned out: in the full panel of roughly 83,000, 20% have a hit.
Reported growth by item:
recorded_metric: growth (%)

| substance_smiles | study_system | recorded_metric | measured |
| --- | --- | --- | --- |
| CCN1CCN(c2ccc(NC(=O)Nc3ccc(-c4cc(C(=O)NC)c5ncccc5n4)cc3)cc2C(F)(F)F)CC1 | 786-0 renal | growth | -100 |
| COc1cc2oc(-c3cccc(C(=O)Nc4ccc(Cl)cc4)c3)cc(=O)c2c(OCCNC(=O)CNC(=O)OC(C)(C)C)c1OC | 786-0 renal | growth | 76.1 |
| O=C(Nc1ccc(I)cc1)Nc1nc2ccc([N+](=O)[O-])cc2s1 | 786-0 renal | growth | -100 |
| O=C(CS(=O)(=O)c1oc(-c2ccc(Cl)cc2)nc1S(=O)(=O)c1ccccc1)N1CCCC1 | 786-0 renal | growth | -44.3 |
| O=C1Nc2ccc(Cl)cc2/C1=C/c1cccc(OCc2ccccc2)c1 | 786-0 renal | growth | 40.5 |
| COc1csc(/C=N/NC(=O)c2[nH]c3ccc(Br)cc3c2-c2ccccc2)c1 | 786-0 renal | growth | 4.83 |
| C=CC(=O)Nc1nc(-c2cccc(NS(=O)(=O)c3cccc4c(N(C)C)cccc34)c2)cs1 | 786-0 renal | growth | -82.5 |
| COc1ccc(/C=C/C(=O)c2ccc(S(=O)(=O)NCCNc3nc(Nc4ccc(F)cc4)nc(N(C)C)n3)cc2)cc1 | 786-0 renal | growth | 13.5 |
| O/N=C(\CSc1nnc(-c2c[nH]c3ccccc23)n1-c1ccccc1)c1ccc(Br)cc1 | 786-0 renal | growth | 34.7 |
